# SUBJECT OF TEST: Aspartate--tRNA(Asp/Asn) ligase (Mycobacterium tuberculosis (strain ATCC 25618 / H37Rv))
# TEST DESCRIPTION: Assay for Asp RNA synthetase-1 from Mycobacterium tuberculosis
# Assay type: functional
# Design: scale not given: direction of the effect not stated beside the values
# RECORDED CONDITIONS: 30 µM
Below is a list of entries, each paired with its recorded Percent Effect value.
Report the value in % with no unit label.

Please review the following examples before continuing.
- MOLECULE: "c1ncn(CC2CCCCN2Cc2csc(C3CCCC3)n2)n1 (centres undefined)"
  RECORDED VALUE: -7.74
- MOLECULE: "Cn1ccnc1CN1CCC2(CC(=O)N(c3cccc(F)c3)C2)C1 (centres undefined)"
  RECORDED VALUE: 6.19
- MOLECULE: "COc1ccc(NC(C)C(=O)N2CCN(Cc3ccccc3)CC2)cn1 (centres undefined)"
  RECORDED VALUE: 3.97
- MOLECULE: "CC1CCCCN1C(=O)CN1CCN(c2ccc3nncn3n2)CC1 (centres undefined)"
  RECORDED VALUE: 0.945
- MOLECULE: "CCN(CC)C(=O)c1cc(C2CCCN2C)ccn1 (centres undefined)"
  RECORDED VALUE: 4.39
- MOLECULE: "Cc1cc(C(=O)NCc2ccccn2)no1"
  RECORDED VALUE: -4.62
- MOLECULE: "Cn1nnc2c1CCN(CC1CC1)C2COCc1ccccc1 (centres undefined)"
  RECORDED VALUE: 1.84
- MOLECULE: "CC(C)Cc1cc(NC(=O)c2ccc(=O)[nH]n2)n(C)n1"
  RECORDED VALUE: -2.97
- MOLECULE: "Cc1n[nH]c(=O)c2c(NC(=O)CN3CCC(O)CC3)oc(C)c12"
  RECORDED VALUE: 1.28
- MOLECULE: "COc1c(CNCc2cnn(C)c2)c(C(C)C)nn1C"
  RECORDED VALUE: -1.63

Request: For O=C(CO)N1CCC(c2cncc(-c3cccc(Cl)c3)n2)CC1 , what is its reported Percent Effect?
Result: 4.78

Request: For CCN(c1ccc(C(=O)NCCCN2CCOCC2)cc1)S(=O)(=O)CC , what is its reported Percent Effect?
Result: 4.46

Request: For Cc1nc(CN2CCCN(C(=O)C3(C#N)CCCCC3)CC2)cs1 , what is its reported Percent Effect?
Result: 1.34

Request: For CN(CC1CCCCO1)C(=O)c1ccnc(OC2CCC2)c1 (centres undefined) , what is its reported Percent Effect?
Result: -2.11

Request: For c1cc(CO[C@@H]2CC[C@H]3[C@H]2OCCN3Cc2ccoc2)ccn1 , what is its reported Percent Effect?
Result: 9.49

====

# SUBJECT OF TEST: Chromo domain-containing protein 1 (Saccharomyces cerevisiae (strain ATCC 204508 / S288c) (Baker's yeast)) (UniProt P32657)
# Sequence (P32657 whole entry, the tested form may be a part): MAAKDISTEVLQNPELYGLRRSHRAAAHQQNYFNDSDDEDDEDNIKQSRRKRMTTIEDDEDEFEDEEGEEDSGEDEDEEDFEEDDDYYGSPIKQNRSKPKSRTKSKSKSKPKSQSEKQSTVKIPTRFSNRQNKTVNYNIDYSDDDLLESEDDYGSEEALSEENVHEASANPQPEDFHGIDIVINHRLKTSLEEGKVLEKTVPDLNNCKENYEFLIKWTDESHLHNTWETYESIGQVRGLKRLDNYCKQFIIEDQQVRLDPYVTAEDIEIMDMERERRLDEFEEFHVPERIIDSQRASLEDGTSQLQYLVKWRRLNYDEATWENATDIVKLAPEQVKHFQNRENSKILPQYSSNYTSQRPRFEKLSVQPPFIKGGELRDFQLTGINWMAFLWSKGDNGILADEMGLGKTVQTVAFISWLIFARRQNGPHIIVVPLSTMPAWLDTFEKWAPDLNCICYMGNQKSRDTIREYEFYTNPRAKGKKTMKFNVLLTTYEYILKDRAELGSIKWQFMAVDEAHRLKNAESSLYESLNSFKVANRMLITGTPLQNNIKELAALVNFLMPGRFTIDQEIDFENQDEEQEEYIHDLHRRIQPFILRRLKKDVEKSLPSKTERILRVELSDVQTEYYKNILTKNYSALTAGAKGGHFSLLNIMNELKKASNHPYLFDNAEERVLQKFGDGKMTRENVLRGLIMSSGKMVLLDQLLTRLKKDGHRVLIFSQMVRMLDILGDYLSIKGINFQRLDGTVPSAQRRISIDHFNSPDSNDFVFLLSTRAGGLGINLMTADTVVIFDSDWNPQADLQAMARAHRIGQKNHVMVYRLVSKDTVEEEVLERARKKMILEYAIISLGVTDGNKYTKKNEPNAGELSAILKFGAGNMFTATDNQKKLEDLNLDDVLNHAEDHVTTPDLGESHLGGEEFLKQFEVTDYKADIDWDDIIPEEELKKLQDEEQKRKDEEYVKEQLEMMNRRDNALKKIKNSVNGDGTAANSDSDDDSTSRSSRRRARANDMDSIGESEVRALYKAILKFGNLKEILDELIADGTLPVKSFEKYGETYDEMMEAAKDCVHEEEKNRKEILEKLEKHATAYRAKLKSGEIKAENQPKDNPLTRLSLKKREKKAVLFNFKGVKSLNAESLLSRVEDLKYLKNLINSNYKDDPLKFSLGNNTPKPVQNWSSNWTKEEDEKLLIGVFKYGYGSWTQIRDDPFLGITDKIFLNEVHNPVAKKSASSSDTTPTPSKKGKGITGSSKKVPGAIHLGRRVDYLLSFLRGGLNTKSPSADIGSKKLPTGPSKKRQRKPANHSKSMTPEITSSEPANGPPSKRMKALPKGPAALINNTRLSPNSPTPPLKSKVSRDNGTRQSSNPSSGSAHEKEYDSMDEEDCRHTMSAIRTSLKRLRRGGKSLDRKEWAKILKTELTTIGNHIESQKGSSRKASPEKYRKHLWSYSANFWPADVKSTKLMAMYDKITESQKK
# TEST DESCRIPTION: ScCHD-1 Enzyme Inhibition Assay; also: in the data most compounds retested in dose-response had high values
# Assay type: functional
# Parameters: scale not given: direction of the effect not stated beside the values
# RECORDED CONDITIONS: 30 µM
Below is a list of entries, each paired with its recorded Percent Effect value.
Report the value in % with no unit label.

Please review the following examples before continuing.
- COMPOUND: "c1ccc(CN2C[C@@H]3OCCN(CC4CCCO4)[C@@H]3C2)nc1 (stereo partly drawn)"
  UNIT TAG: "%"
  Percent Effect: -4.89
- COMPOUND: "CCN(CC)C(=O)c1ccc(NC(=O)CNc2ccc(F)cc2Cl)cc1"
  UNIT TAG: "%"
  Percent Effect: -3.17

Request: For c1csc(CN2CC[C@H]3C[C@H](c4ccncn4)O[C@@H]3C2)c1 , what is its reported Percent Effect?
Result: -8.13

Request: For NC[C@H]1[C@H]2CN(Cc3ccccc3)C[C@@H]12 , what is its reported Percent Effect?
Result: -6.97

Request: For COc1ccc(C(=O)C2CCCN(CCCn3cccn3)C2)c(OC)c1 (stereo not drawn) , what is its reported Percent Effect?
Result: 77.1

Request: For Cc1noc(C)c1CN1CCCC2(CCN(C(=O)CC3CC3)C2)C1 (stereo not drawn) , what is its reported Percent Effect?
Result: -8.2

Request: For CC(C)c1nccc([C@H]2C[C@@H]3CCN(Cc4ccoc4)C[C@H]3O2)n1 , what is its reported Percent Effect?
Result: -1.73

Request: For Cc1nnc(N2CCCC3(CN(Cc4ccncc4)CCO3)C2)o1 (stereo not drawn) , what is its reported Percent Effect?
Result: 0.771

Request: For O=C(c1ccnnc1)N1C[C@@H]2OCCN(CCN3CCCC3)[C@@H]2C1 , what is its reported Percent Effect?
Result: 6.02

Request: For CC(Cn1cccn1)NCc1csc(-c2cccs2)n1 (stereo not drawn) , what is its reported Percent Effect?
Result: -4.55

====

Below is a list of entries, each paired with its recorded Percent Effect value.
# SUBJECT OF TEST: Shiga toxin 2 (Escherichia coli O157:H7) (UniProt P09385+P09386)
# TEST DESCRIPTION: E. coli 0.157:H7 Shiga Toxin SOP - stx2 screening assay
# Type: functional
# Design: scale not given: direction of the effect not stated beside the values
# RECORDED CONDITIONS: 30 µM
Report the value in % with no unit label.

Please review the following examples before continuing.
- MOLECULE: "CCN(CC)C(=O)c1nnn(-c2ccc(C)cc2)c1C1CC1"
  SUBJECT OF TEST: "Shiga toxin 2 (Escherichia coli O157:H7) (UniProt P09385+P09386)"
  Percent Effect / %: -1.32
- MOLECULE: "COc1cc(CNCC(O)c2ccc(F)c(F)c2)cc2c1OCO2 (stereo unspecified)"
  SUBJECT OF TEST: "Shiga toxin 2 (Escherichia coli O157:H7) (UniProt P09385+P09386)"
  Percent Effect / %: -9.43
- MOLECULE: "COc1ccc(CN(C)[C@@H]2CN(C(=O)c3cccs3)C[C@H]2O)cc1"
  SUBJECT OF TEST: "Shiga toxin 2 (Escherichia coli O157:H7) (UniProt P09385+P09386)"
  Percent Effect / %: 12

Request: For CCn1cc(NC(=O)NCc2ccc(CN3CCOCC3)cc2)cn1 , what is its reported Percent Effect?
Result: -35.1

Request: For CCC1CN(Cc2ccccc2)CCN1Cc1nnc(C2CCC2)o1 (stereo unspecified) , what is its reported Percent Effect?
Result: -9.86

Request: For Cn1c(C(F)(F)F)nn(CCNC(=O)c2cnc3ccccc3n2)c1=O , what is its reported Percent Effect?
Result: -21.4

Request: For O=C(Cc1cccs1)N1C[C@@H]2OCCN(CC3CCCO3)[C@@H]2C1 (stereo partly specified) , what is its reported Percent Effect?
Result: -19.8

Request: For Cc1noc(C)c1CN1CC[C@H]2C[C@@H](c3nccs3)O[C@@H]2C1 , what is its reported Percent Effect?
Result: 11.3

Request: For Cc1cc(C(=O)N2C[C@@H](C(=O)O)[C@H](c3ccccc3C)C2)c(C)o1 , what is its reported Percent Effect?
Result: -22

Request: For c1cnnc(N2CCCC2CNc2nc3ccccc3o2)c1 (stereo unspecified) , what is its reported Percent Effect?
Result: -10.1

Request: For CNC(=O)C1(CCCc2cccnc2)CCCCN1 (stereo unspecified) , what is its reported Percent Effect?
Result: 0.867

====

# SUBJECT OF TEST: Aspartate--tRNA(Asp/Asn) ligase (Mycobacterium tuberculosis (strain ATCC 25618 / H37Rv))
# TEST DESCRIPTION: Assay for Asp RNA synthetase-1 from Mycobacterium tuberculosis
# Assay type: functional
# Set-up: scale not given: direction of the effect not stated beside the values
# RECORDED CONDITIONS: 30 µM
READOUT NAME: Percent Effect (%)
Report the value in % with no unit label.

Request: Which Percent Effect is reported with Aspartate--tRNA(Asp/Asn) ligase (Mycobacterium tuberculosis (strain ATCC 25618 / H37Rv)) for this entry: CCn1cc(C(=O)N2CCCC(c3[nH]ncc3S(C)(=O)=O)C2)cn1 (configuration not stated) ?
Result: -3.25

Request: Which Percent Effect is reported with Aspartate--tRNA(Asp/Asn) ligase (Mycobacterium tuberculosis (strain ATCC 25618 / H37Rv)) for this entry: OC(COc1ccc(F)cc1)CN1CCC(Cn2cccn2)CC1 (configuration not stated) ?
Result: 1.46

Request: Which Percent Effect is reported with Aspartate--tRNA(Asp/Asn) ligase (Mycobacterium tuberculosis (strain ATCC 25618 / H37Rv)) for this entry: CCn1c(C)nnc1CN(C)C1CCN(Cc2nccn2C)C1 (configuration not stated) ?
Result: 1.34

Request: Which Percent Effect is reported with Aspartate--tRNA(Asp/Asn) ligase (Mycobacterium tuberculosis (strain ATCC 25618 / H37Rv)) for this entry: Cc1noc(C(C)C)c1C(=O)NS(=O)(=O)c1ccc2c(c1)OCCCO2 ?
Result: 2.22

Request: Which Percent Effect is reported with Aspartate--tRNA(Asp/Asn) ligase (Mycobacterium tuberculosis (strain ATCC 25618 / H37Rv)) for this entry: O=C(CN1CCCC1Cn1cccn1)NC1CCOCC1 (configuration not stated) ?
Result: -1.71
